Data origin: patent US11267844B2

system: DENV-2/16681/eGFP; assay: Antiviral activity against DENV-2/16681/eGFP in Vero cells (eGFP read-out); type: cell-based, dengue virus serotype 2; conditions: Dengue virus, DENV2, Vero, 72 h, read-out: DENV Vero (EC50, μM)
For each record, write down the corresponding EC50.

// known answers, use as guide
Compound	Measurement Type	Result
O=c1ccn([C@@H]2O[C@](F)(CO)[C@@H](O)[C@]23CCS3)c(=O)[nH]1	EC50	63 µM
Nc1ncnc2c1ncn2[C@@H]1O[C@H](CO)[C@@H](O)[C@]12CCS2	EC50	> 50 µM
O=c1ccn([C@@H]2O[C@]3(F)COP(=O)(OC4CCCC4)O[C@H]3[C@]23CCS3)c(=O)[nH]1 (stereo partly shown)	EC50	> 100 µM

We now examine a further compound.
The recorded EC50 with DENV-2/16681/eGFP for CC(C)OC(=O)[C@H](C)NP(=O)(OC[C@H]1O[C@@H](n2ccc(=O)[nH]c2=O)[C@@]2(CCS2)[C@@H]1O)Oc1ccccc1 (stereo partly shown) was > 100 µM

====

system: HCV replicon (NS3-NS5B regions of HCV type 1b) in Huh-7 luc/neo cells; test: HCV replicon assay (Huh-Luc cells, luciferase read-out); type: cell-based; settings: Hepatitis C virus, Huh-7, 72 h; Table 1A; Huh-Luc replicon cells, 3 days; read-out: HCV Huh-7 (EC50)
Measurement Type: pEC50
Numbers only, as −log10 of the molar value.

Molecule	Quantitative Result
CC(C)OC(=O)[C@H](C)NP(=O)(OC[C@H]1O[C@@H](n2ccc(=O)[nH]c2=O)[C@@]2(CCS2)[C@@H]1O)Oc1ccccc1 (stereo partly shown)	6.00

We now examine a further molecule.
So, O=c1ccn([C@@H]2O[C@]3(F)COP(=O)(OC4CCCC4)O[C@H]3[C@]23CCS3)c(=O)[nH]1 (stereo partly shown) ? Its pEC50 was 4.60

====

tested on: DENV-2/16681/eGFP; assay: Antiviral activity against DENV-2/16681/eGFP in Vero cells (eGFP read-out); format: cell-based, dengue virus serotype 2; conditions: Dengue virus, DENV2, Vero, 72 h, read-out: DENV Vero (EC50, μM)
Measurement Type: EC50 (µM)
Numbers only, in µM.

// known answers, use as guide
Compound	Measurement Type	Unit Abbreviation	Quantitative Result
O=c1ccn([C@@H]2O[C@](F)(COP(=O)(NC3CCC3)Oc3ccc(Cl)cc3)[C@@H](O)[C@]23CCS3)c(=O)[nH]1 (stereo partly drawn)	EC50	µM	45
CC(C)OC(=O)C(C)NP(=O)(OC[C@@]1(N=[N+]=[N-])O[C@@H](n2ccc(=O)[nH]c2=O)[C@@]2(CCS2)[C@@H]1O)Oc1ccccc1 (stereo in doubt)	EC50	µM	62

So, `Nc1ccn([C@@H]2O[C@](F)(CO)[C@@H](O)[C@]23CCS3)c(=O)n1` ? Its EC50 was 50

====

For each record, write down the corresponding EC50.
System: DENV-2/16681/eGFP
Experiment: Antiviral activity against DENV-2/16681/eGFP in Vero cells (eGFP read-out)
Format: cell-based, dengue virus serotype 2
Details: Dengue virus, DENV2, Vero, 72 h, read-out: DENV Vero (EC50, μM)
Procedure: The antiviral activity of the compounds against DENV-2/16681/eGFP was determined in a phenotypic antiviral assay with eGFP read-out, a measure for the amount of virus (TV-WI-03476 and TV-WI-05601). In parallel, cytotoxicity of the compounds was measured using ATPLite™ (PerkinElmer, Waltham, Mass.). The assay was performed in two different cell-lines (Vero and Huh-7) to exclude cell-specific activity of the compound. […]

Compound	EC50
CC(C)OP(=O)(OC[C@@]1(F)O[C@@H](n2ccc(=O)[nH]c2=O)[C@@]2(CCS2)[C@@H]1O)Oc1ccc(Cl)cc1 (stereo partly shown)	> 100 µM
CC(C)C(=O)OC[C@H]1O[C@@H](n2ccc(=O)[nH]c2=O)[C@@]2(CCS2)[C@@H]1OC(=O)C(C)C	> 100 µM
O=c1ccn([C@@H]2O[C@](F)(COP(=O)(Oc3ccccc3Cl)OC3CCCC3)[C@@H](O)[C@]23CCS3)c(=O)[nH]1 (stereo partly shown)	35 µM

We now examine a further compound.
So, `CC(C)C(=O)OC[C@H]1O[C@@H](n2ccc(N)nc2=O)[C@@]2(CCS2)[C@@H]1OC(=O)C(C)C` ? Its EC50 was > 100 µM

====

test system: HCV replicon (NS3-NS5B regions of HCV type 1b) in Huh-7 luc/neo cells; experiment: HCV replicon assay (Huh-Luc cells, luciferase read-out); assay type: cell-based; details: Hepatitis C virus, Huh-7, 72 h; Table 1A; Huh-Luc replicon cells, 3 days; read-out: HCV Huh-7 (EC50)
For each record, write down the corresponding EC50.
Give bare numbers, in µM.

Compound	EC50 (µM)
CC(C)OC(=O)[C@H](C)NP(=O)(OC[C@@]1(F)O[C@@H](n2ccc(N)nc2=O)[C@@]2(CCS2)[C@@H]1O)Oc1ccccc1 (stereo partly drawn)	11
O=c1ccn([C@@H]2O[C@](F)(CO)[C@@H](O)[C@]23CCS3)c(=O)[nH]1	84

So, CCCCOC(=O)[C@H](C)NP(=O)(OC[C@@]1(F)O[C@@H](n2ccc(=O)[nH]c2=O)[C@@]2(CCS2)[C@@H]1O)Oc1ccccc1 (stereo partly drawn) ? Its EC50 was 2

====

For each record, write down the corresponding EC50.
test system: DENV-2/16681/eGFP; test: Antiviral activity against DENV-2/16681/eGFP in Vero cells (eGFP read-out); format: cell-based, dengue virus serotype 2; settings: Dengue virus, DENV2, Vero, 72 h, read-out: DENV Vero (EC50, μM)

Compound	Assay Target	Result
O=c1ccn([C@@H]2O[C@]3(F)CO[P@@](=O)(NC4CCC4)O[C@H]3[C@]23CCS3)c(=O)[nH]1 [Compound 40b]	DENV-2/16681/eGFP	> 100 µM
O=c1ccn([C@@H]2O[C@H](CO)[C@@H](O)[C@]23CCS3)c(=O)[nH]1 [Compound 7]	DENV-2/16681/eGFP	> 100 µM

So, CC(C)OC(=O)[C@H](C)NP(=O)(OC[C@H]1O[C@@H](n2ccc(N)nc2=O)[C@@]2(CCS2)[C@@H]1O)Oc1ccccc1 (stereo partly drawn) [Compound 17] ? Its EC50 was > 50 µM

====

system: HCV replicon (NS3-NS5B regions of HCV type 1b) in Huh-7 luc/neo cells; experiment: HCV replicon assay (Huh-Luc cells, luciferase read-out); assay type: cell-based; settings: Hepatitis C virus, Huh-7, 72 h; Table 1A; Huh-Luc replicon cells, 3 days; read-out: HCV Huh-7 (EC50)
For each record, write down the corresponding EC50.

// known answers, use as guide
Compound	Assay Target	EC50
O=c1ccn([C@@H]2O[C@]3(F)CO[P@](=O)(NC4CCC4)O[C@H]3[C@]23CCS3)c(=O)[nH]1 [Compound 40a]	HCV replicon (NS3-NS5B regions of HCV type 1b) in Huh-7 luc/neo cells	> 100 µM
Nc1ccn([C@@H]2O[C@](F)(CO)[C@@H](O)[C@]23CCS3)c(=O)n1	HCV replicon (NS3-NS5B regions of HCV type 1b) in Huh-7 luc/neo cells	> 100 µM

We now examine a further compound.
So, `CC(C)C(=O)OC[C@H]1O[C@@H](n2ccc(N)nc2=O)[C@@]2(CCS2)[C@@H]1OC(=O)C(C)C` ? Its EC50 was > 100 µM
